biological target: thrombin receptor (Homo sapiens); construct: human coronary artery smooth muscle cell assay measuring effects on thrombin receptor agonist peptide; endogenous in cells; host or cells: human coronary artery smooth muscle cells; assay: Calcium transient assay (human coronary artery smooth muscle cells, TK-induced calcium efflux); type: cell-based; conditions: agonist peptide TFLLRNPNDK-NH2 (TK)
Sequence (P25116 22-425): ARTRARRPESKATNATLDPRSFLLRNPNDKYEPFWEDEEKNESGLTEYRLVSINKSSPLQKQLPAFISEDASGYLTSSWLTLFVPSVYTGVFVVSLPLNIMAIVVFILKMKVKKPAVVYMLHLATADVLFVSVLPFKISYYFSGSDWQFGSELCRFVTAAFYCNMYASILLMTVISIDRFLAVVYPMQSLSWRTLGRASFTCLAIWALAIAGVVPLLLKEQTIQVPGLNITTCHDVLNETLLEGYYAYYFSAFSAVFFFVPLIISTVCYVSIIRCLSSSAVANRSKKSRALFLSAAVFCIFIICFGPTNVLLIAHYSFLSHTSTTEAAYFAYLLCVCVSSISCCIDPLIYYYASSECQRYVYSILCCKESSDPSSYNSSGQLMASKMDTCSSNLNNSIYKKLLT
MEASUREMENT LABEL: IC50 (nM)
One number for each entry, in nM.

[ask] Form field - read-out: IC50; system: thrombin receptor (Homo sapiens); submitted item: C[C@H]1OC(=O)[C@@H]2C[C@@H]3C[C@H](NC(=O)OCCO)CC[C@H]3[C@H](/C=C/c3ccc(-c4cccc(F)c4)cn3)[C@H]12 [Metabolite M20]
[reply] 3.4

###

target: thrombin receptor (Homo sapiens); construct: human coronary artery smooth muscle cell assay measuring effects on thrombin receptor agonist peptide; endogenous in cells; host or cells: human coronary artery smooth muscle cells; experiment: Calcium transient assay (human coronary artery smooth muscle cells, TK-induced calcium efflux); assay type: cell-based; settings: agonist peptide […]-NH2 (TK)
MEASUREMENT LABEL: pIC50
Give bare numbers, as −log10 of the molar value.

[ask] Consider the compound shown here: CCOC(=O)N[C@@H]1CC[C@@H]2[C@@H](C1)C[C@H]1C(=O)O[C@H](C)[C@H]1[C@H]2/C=C/c1ccc(-c2cccc(F)c2)cn1 [SCH 530348, reference compound] What is its recorded pIC50?
[reply] 8.35
